pIC50: −log10 of the molar value.
Consider the following pIC50 data for UniProt:Q92918, collected from several reports.
measurement.name: pIC50

C[C@H]1CCCN1Cc1nc(-c2cnc3[nH]cc(C4CC4)c3c2)ccc1C1CCOCC1 :: 8.00 to 8.30
COCCN1CCN(c2cccc(-c3cnc4[nH]cc(C5CC5)c4c3Cl)c2)C(=O)C1 :: ≥ 8.00
CN1CCN(c2ccc(Nc3ncc(-c4cnc5cc(F)ccn45)c4c3C(=O)NC4)cc2)CC1 :: < 7.00
CCc1c[nH]c2ncc(-c3cccc(N4CCN(C(=O)CCCCCOc5cccc6c5CN(C5CCC(=O)NC5=O)C6=O)CC4=O)c3)c(Cl)c12 (stereo not shown) :: 7.00 to 8.00
